- subject_of_test: T1, GIP receptor (human (printed as hGIPR), UniProt P48546 22-466)
- T1 sequence (looked up): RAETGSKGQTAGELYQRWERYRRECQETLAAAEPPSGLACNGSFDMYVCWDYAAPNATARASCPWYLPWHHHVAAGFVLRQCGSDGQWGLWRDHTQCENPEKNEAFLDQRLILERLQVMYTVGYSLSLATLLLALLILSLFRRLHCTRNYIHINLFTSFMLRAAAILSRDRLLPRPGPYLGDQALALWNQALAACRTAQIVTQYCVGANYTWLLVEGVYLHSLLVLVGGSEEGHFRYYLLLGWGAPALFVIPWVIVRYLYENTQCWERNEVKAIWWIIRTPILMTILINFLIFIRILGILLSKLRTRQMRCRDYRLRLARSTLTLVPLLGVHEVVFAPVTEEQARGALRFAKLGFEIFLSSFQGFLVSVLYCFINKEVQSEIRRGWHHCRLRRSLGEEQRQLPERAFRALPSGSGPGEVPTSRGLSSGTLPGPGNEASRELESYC
- protocol_description: cell-based or functional assay
Starred links: 1 amine or outer side, 2 acyl side, 3 side chain; linkers in the order of their positions; H or OH if unused. Non-standard residues stand in square brackets, D forms with d. Groups on a side chain read outwards from the residue. No end group written: not given here. *: point of attachment. C20 diacid = O=C(O)CCCCCCCCCCCCCCCCCCC(=O)*; γGlu = O=C(O)[C@H](CCC(=O)[*:2])N[*:1]; εLys = N[C@@H](CCCCN[*:1])C(=O)[*:2]; Aib = CC(C)(N)C(=O)O
// reported EC50 hGIPR 0.5% hP (CreLuc) for each item listed
Numeric only. Scale: nM

The cases that follow already have their EC50 hGIPR 0.5% hP (CreLuc) on record.
>  <binder>
Y[Aib]EGTFTSDYSI[Aib]LEKQAQ[Aib]AFVQWLIKGGPSEGASLRHYYNWLTRQRY-NH2 (not fully specified (residue 28); also: TFA salt) [Compound 245]

>  <quantity_kind>
EC50 hGIPR 0.5% hP (CreLuc)

>  <recorded_measurement>
0.37

$$$$
>  <binder>
Y[Aib]EGTFTSDYSI[Aib]LEKQAE[Aib]AFVQWLIK([εLys-γGlu-γGlu-γGlu-γGlu-γGlu-C20 diacid])GGPSEGASLRHYYNWLTRQRY-NH2 (also: TFA salt) [Compound 200]

>  <quantity_kind>
EC50 hGIPR 0.5% hP (CreLuc)

>  <recorded_measurement>
0.37

$$$$
>  <binder>
YXEGTFTSDYSIXLEKQAQXAFVEWLIKGGPSSGASLRHYYNWLTRQRX (Aib at 2, 13, 20; Tle at 49; K28 side chain carries C20DA-gGlu-gGlu-gGlu-gGlu-gGlu-gGlu-eLys; C-terminal amide) [Compound 191]

>  <quantity_kind>
EC50 hGIPR 0.5% hP (CreLuc)

>  <recorded_measurement>
0.23

$$$$
>  <binder>
YXEGTFTSDYSIXLEKQAQXAFVEWLIKGGPSSGASLRHYYNWLTRQRY (Aib at 2, 13, 20; K28 side chain carries C18DA-gGlu-gGlu-gGlu-gGlu-gGlu; C-terminal amide) [Compound 253]

>  <quantity_kind>
EC50 hGIPR 0.5% hP (CreLuc)

>  <recorded_measurement>
0.24

$$$$
>  <binder>
YXEGTFTSDYSIXLEKQAQXAFVEWLIKGGPSEGASLRHYYNWLTRQRY (Aib at 2, 13, 20; NMeR (N-methyl-L-arginine) at 48; K28 side chain carries C20DA-gGlu-gGlu-gGlu-gGlu-gGlu-gGlu-eLys; C-terminal amide) [Compound 236]

>  <quantity_kind>
EC50 hGIPR 0.5% hP (CreLuc)

>  <recorded_measurement>
0.3

$$$$

# binder YXEGTFTSDYSIXLEKQAQXAFVQWLIKGGPSEGASLRHYYNWLTRQRY (Aib at 2, 13, 20; K28 side chain carries C18DA-E-E-E-E-E-E-eLys (SEQ ID NO: 643); C-terminal amide) [Compound 249] ; its EC50 hGIPR 0.5% hP (CreLuc) = 0.19

Memo: YXEGTFTSDLSIXLEKQAQXAFVEWLIKGGPSEGASLRHYYNWLTRQRY (Aib at 2, 13, 20; K28 side chain carries C20DA-gGlu-gGlu-gGlu-gGlu-Glu-gGlu-eLys (so in the source); C-terminal amide) [Compound 234] , reported EC50 hGIPR 0.5% hP (CreLuc): 0.74

Query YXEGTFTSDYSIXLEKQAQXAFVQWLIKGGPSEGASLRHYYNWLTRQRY (Aib at 2, 13, 20; K28 side chain carries C20DA-gGlu-gGlu-gGlu-gGlu-gGlu-OEG-OEG; C-terminal amide) [Compound 228] yields EC50 hGIPR 0.5% hP (CreLuc) of 0.23
